Data provenance is patent US20200031927A1.

- target.system: T1, soluble KIR3DL1*002-Fc (human, UniProt P43629 22-338)
- T1 construct: also called KIR3DL1 allele 002; Allele 002; not shown: Fc domain
- T1 sequence (P43629 other isoform, or with tags, fused parts or gaps): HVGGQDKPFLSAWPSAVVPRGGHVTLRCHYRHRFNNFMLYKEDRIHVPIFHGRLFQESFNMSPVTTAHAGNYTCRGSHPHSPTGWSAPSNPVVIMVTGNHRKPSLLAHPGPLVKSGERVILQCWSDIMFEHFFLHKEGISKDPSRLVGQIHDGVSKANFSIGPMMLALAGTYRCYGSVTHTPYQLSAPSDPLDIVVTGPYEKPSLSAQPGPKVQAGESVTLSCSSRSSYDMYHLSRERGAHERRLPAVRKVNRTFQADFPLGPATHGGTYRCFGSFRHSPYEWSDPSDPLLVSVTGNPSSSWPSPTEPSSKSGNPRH
- procedure.details: SPR (BIACORE T-100), kinetics
property.measured: Kd
Answer with the figure and its unit, nothing else.

Examples with answers:
ET160-73 (antibody, human IgG1, V domains shown, Tested as human IgG1 (hIgG1), kappa light chain) VH: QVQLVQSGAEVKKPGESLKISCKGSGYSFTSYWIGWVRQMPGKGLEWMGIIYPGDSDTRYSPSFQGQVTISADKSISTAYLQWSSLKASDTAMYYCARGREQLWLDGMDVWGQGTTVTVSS VL: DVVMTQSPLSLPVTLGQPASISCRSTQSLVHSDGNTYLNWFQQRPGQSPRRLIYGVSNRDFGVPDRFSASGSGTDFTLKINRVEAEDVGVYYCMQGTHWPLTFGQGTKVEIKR :: 124 nM
ET160-61 (antibody, human IgG1, V domains shown, Tested as human IgG1 (hIgG1), lambda light chain) VH: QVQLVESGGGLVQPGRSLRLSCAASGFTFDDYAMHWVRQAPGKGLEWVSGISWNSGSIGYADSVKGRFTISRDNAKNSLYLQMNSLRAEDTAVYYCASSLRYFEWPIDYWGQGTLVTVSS VL: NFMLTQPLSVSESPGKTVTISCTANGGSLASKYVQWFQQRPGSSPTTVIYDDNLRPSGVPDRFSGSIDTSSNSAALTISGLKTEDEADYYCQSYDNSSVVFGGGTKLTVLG :: 27.7 nM

// recorded Kd for ET160-72 (antibody, human IgG1, V domains shown, Tested as human IgG1 (hIgG1), lambda light chain) VH: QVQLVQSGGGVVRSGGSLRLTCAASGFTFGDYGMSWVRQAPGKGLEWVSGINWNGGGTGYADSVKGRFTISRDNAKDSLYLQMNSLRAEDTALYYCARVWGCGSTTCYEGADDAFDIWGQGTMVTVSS VL: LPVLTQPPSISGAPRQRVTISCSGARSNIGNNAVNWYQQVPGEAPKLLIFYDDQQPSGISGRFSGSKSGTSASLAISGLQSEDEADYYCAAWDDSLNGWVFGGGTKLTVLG : 316 nM
